Tested on: CaES-17 (esophageal cancer cell)
method: MTT growth inhibition of human solid tumor cells, 72 h
Format: cell-based
condition-summary: Homo sapiens, CaEs17
Listed compounds paired with reported IC90
value-kind: IC90

1. COC(=O)C[C@](O)(CCCC(C)(C)OC(=O)c1cccnc1Cl)C(=O)O[C@@H]1C(OC)=C[C@]23CCCN2CCc2cc4c(cc2[C@H]13)OCO4 : 16 µg/mL
2. COC(=O)C[C@](O)(CCCC(C)(C)OC(=O)C1CC1)C(=O)O[C@@H]1C(OC)=C[C@]23CCCN2CCc2cc4c(cc2[C@H]13)OCO4 : 16 µg/mL
3. COC(=O)C[C@](O)(CCCC(C)(C)OC(C)=O)C(=O)O[C@@H]1C(OC)=C[C@]23CCCN2CCc2cc4c(cc2[C@H]13)OCO4 : > 16 µg/mL
4. COC(=O)C[C@@](CCCC(C)(C)OC(=O)c1cccs1)(OC(=O)c1cccs1)C(=O)O[C@@H]1C(OC)=C[C@]23CCCN2CCc2cc4c(cc2[C@H]13)OCO4 : 16 µg/mL

---

Tested on: RKO (human colon adenocarcinoma cell)
method: MTT growth inhibition of human solid tumor cells, 72 h
Type: cell-based
condition-summary: Homo sapiens, MTT
value-kind: IC90 (µg/mL)

1. COC(=O)C[C@](O)(CCCC(C)(C)OC(=O)Cc1ccccc1)C(=O)O[C@@H]1C(OC)=C[C@]23CCCN2CCc2cc4c(cc2[C@H]13)OCO4 [BS-HH-074] : 0.006
2. COC(=O)C[C@](O)(CCCC(C)(C)O)C(=O)O[C@@H]1C(OC)=C[C@]23CCCN2CCc2cc4c(cc2[C@H]13)OCO4 [HHT, reference compound] : 0.009
3. COC(=O)C[C@](O)(CCCC(C)(C)OC(=O)C1CCCC1)C(=O)O[C@@H]1C(OC)=C[C@]23CCCN2CCc2cc4c(cc2[C@H]13)OCO4 [BS-HH-077] : 0.02
4. COC(=O)C[C@](O)(CCCC(C)(C)OC(=O)C1CC1)C(=O)O[C@@H]1C(OC)=C[C@]23CCCN2CCc2cc4c(cc2[C@H]13)OCO4 [BS-HH-062] : 0.025
5. COC(=O)C[C@](O)(CCCC(C)(C)OC(=O)c1cccnc1Cl)C(=O)O[C@@H]1C(OC)=C[C@]23CCCN2CCc2cc4c(cc2[C@H]13)OCO4 [BS-HH-066] : 0.023
6. COC(=O)C[C@](O)(CCCC(C)(C)OC(C)=O)C(=O)O[C@@H]1C(OC)=C[C@]23CCCN2CCc2cc4c(cc2[C@H]13)OCO4 [BS-HH-002, 6-acetylhomoharringtonine] : 0.01
7. COC(=O)C[C@](O)(CCCC(C)(C)OC(=O)c1scnc1C)C(=O)O[C@@H]1C(OC)=C[C@]23CCCN2CCc2cc4c(cc2[C@H]13)OCO4 [BS-HH-0721] : 0.005
8. COC(=O)C[C@@](CCCC(C)(C)OC(C)=O)(OC(C)=O)C(=O)O[C@@H]1C(OC)=C[C@]23CCCN2CCc2cc4c(cc2[C@H]13)OCO4 [BS-HH-001, 2,6-diacetylhomoharringtonine] : 0.02
9. COC(=O)C[C@](O)(CCCC(C)(C)OC(=O)c1ccco1)C(=O)O[C@@H]1C(OC)=C[C@]23CCCN2CCc2cc4c(cc2[C@H]13)OCO4 [BS-HH-059] : 0.015
10. COC(=O)C[C@@](CCCC(C)(C)OC(=O)c1cccs1)(OC(=O)c1cccs1)C(=O)O[C@@H]1C(OC)=C[C@]23CCCN2CCc2cc4c(cc2[C@H]13)OCO4 [BS-HH-0572] : 0.56

---

Test system: Huh7 (human liver cancer cell)
method: MTT growth inhibition of human solid tumor cells, 72 h
Assay type: cell-based
value-kind: IC90 Huh7

1) COC(=O)C[C@](O)(CCCC(C)(C)OC(=O)C1CCCCC1)C(=O)O[C@@H]1C(OC)=C[C@]23CCCN2CCc2cc4c(cc2[C@H]13)OCO4 : 0.096 µg/mL
2) COC(=O)C[C@@](CCCC(C)(C)OC(=O)c1scnc1C)(OC(=O)c1scnc1C)C(=O)O[C@@H]1C(OC)=C[C@]23CCCN2CCc2cc4c(cc2[C@H]13)OCO4 : 7.6 µg/mL
3) COC(=O)C[C@](O)(CCCC(C)(C)OC(=O)c1cnoc1C)C(=O)O[C@@H]1C(OC)=C[C@]23CCCN2CCc2cc4c(cc2[C@H]13)OCO4 : 0.34 µg/mL
4) COC(=O)C[C@@](CCCC(C)(C)OC(=O)c1ccccc1)(OC(=O)c1ccccc1)C(=O)O[C@@H]1C(OC)=C[C@]23CCCN2CCc2cc4c(cc2[C@H]13)OCO4 : 14.5 µg/mL
5) COC(=O)C[C@@](CCCC(C)(C)OC(=O)/C=C/c1ccco1)(OC(=O)/C=C/c1ccco1)C(=O)O[C@@H]1C(OC)=C[C@]23CCCN2CCc2cc4c(cc2[C@H]13)OCO4 : 0.99 µg/mL

---

Test system: RPMI8226 (multiple myeloma)
method: MTT growth inhibition of multiple myeloma cells, 72 h
Type: cell-based, human
condition-summary: MTT
IC90 RPMI8226 strictly less than 0.6 µg/mL = met. Otherwise not met.

1) COC(=O)C[C@](O)(CCCC(C)(C)OC(=O)c1cnoc1C)C(=O)O[C@@H]1C(OC)=C[C@]23CCCN2CCc2cc4c(cc2[C@H]13)OCO4 [BS-HH-061] : met
2) COC(=O)C[C@](O)(CCCC(C)(C)OC(=O)C1CCCCC1)C(=O)O[C@@H]1C(OC)=C[C@]23CCCN2CCc2cc4c(cc2[C@H]13)OCO4 [BS-HH-076] : met
3) COC(=O)C[C@@](CCCC(C)(C)OC(=O)c1ccccc1)(OC(=O)c1ccccc1)C(=O)O[C@@H]1C(OC)=C[C@]23CCCN2CCc2cc4c(cc2[C@H]13)OCO4 [BS-HH-0732] : not met
4) COC(=O)C[C@@](CCCC(C)(C)OC(=O)/C=C/c1ccco1)(OC(=O)/C=C/c1ccco1)C(=O)O[C@@H]1C(OC)=C[C@]23CCCN2CCc2cc4c(cc2[C@H]13)OCO4 [BS-HH-0022] : not met
5) COC(=O)C[C@@](CCCC(C)(C)OC(=O)c1scnc1C)(OC(=O)c1scnc1C)C(=O)O[C@@H]1C(OC)=C[C@]23CCCN2CCc2cc4c(cc2[C@H]13)OCO4 [BS-HH-0722] : not met

---

Test system: Kasumi-1 (acute myeloid leukemia M2 type, AML-M2)
method: MTT growth inhibition of leukemia cells, 72 h
Format: cell-based, human
condition-summary: Homo sapiens, Kasumi 1, MTT
value-kind: IC90 (mg/L)

1) COC(=O)C[C@](O)(CCCC(C)(C)OC(=O)c1scnc1C)C(=O)O[C@@H]1C(OC)=C[C@]23CCCN2CCc2cc4c(cc2[C@H]13)OCO4 [BS-HH-0721] : 0.004
2) COC(=O)C[C@](O)(CCCC(C)(C)OC(=O)Cc1ccccc1)C(=O)O[C@@H]1C(OC)=C[C@]23CCCN2CCc2cc4c(cc2[C@H]13)OCO4 [BS-HH-074] : 0.005
3) COC(=O)C[C@](O)(CCCC(C)(C)OC(=O)C1CCCC1)C(=O)O[C@@H]1C(OC)=C[C@]23CCCN2CCc2cc4c(cc2[C@H]13)OCO4 [BS-HH-077] : 0.012
4) COC(=O)C[C@](O)(CCCC(C)(C)O)C(=O)O[C@@H]1C(OC)=C[C@]23CCCN2CCc2cc4c(cc2[C@H]13)OCO4 [HHT, reference compound] : 0.024
5) COC(=O)C[C@](O)(CCCC(C)(C)OC(=O)c1ccco1)C(=O)O[C@@H]1C(OC)=C[C@]23CCCN2CCc2cc4c(cc2[C@H]13)OCO4 [BS-HH-059] : 0.012

---

Catalogue of IC50 values
System: Kasumi-1 (acute myeloid leukemia M2 type, AML-M2)
method: MTT growth inhibition of leukemia cells, 72 h
Format: cell-based, human
condition-summary: Homo sapiens, Kasumi 1, MTT
value-kind: IC50

1. COC(=O)C[C@](O)(CCCC(C)(C)OC(=O)c1cccnc1Cl)C(=O)O[C@@H]1C(OC)=C[C@]23CCCN2CCc2cc4c(cc2[C@H]13)OCO4 : 0.7 ng/mL
2. COC(=O)C[C@](O)(CCCC(C)(C)OC(=O)c1ccco1)C(=O)O[C@@H]1C(OC)=C[C@]23CCCN2CCc2cc4c(cc2[C@H]13)OCO4 : 5 ng/mL
3. COC(=O)C[C@](O)(CCCC(C)(C)OC(=O)C1CC1)C(=O)O[C@@H]1C(OC)=C[C@]23CCCN2CCc2cc4c(cc2[C@H]13)OCO4 : 2 ng/mL

---

We begin with a simple list: items and their reported IC90 Hela.
System: Hela (human cervical cancer cell)
method: MTT growth inhibition of human solid tumor cells, 72 h
Assay type: cell-based
condition-summary: MTT
value-kind: IC90 Hela (µg/mL)

1. COC(=O)C[C@](O)(CCCC(C)(C)OC(=O)c1cnoc1C)C(=O)O[C@@H]1C(OC)=C[C@]23CCCN2CCc2cc4c(cc2[C@H]13)OCO4 : 16
2. COC(=O)C[C@](O)(CCCC(C)(C)OC(=O)C1CCCCC1)C(=O)O[C@@H]1C(OC)=C[C@]23CCCN2CCc2cc4c(cc2[C@H]13)OCO4 : 10.25
3. COC(=O)C[C@@](CCCC(C)(C)OC(=O)c1ccccc1)(OC(=O)c1ccccc1)C(=O)O[C@@H]1C(OC)=C[C@]23CCCN2CCc2cc4c(cc2[C@H]13)OCO4 : 8.37
4. COC(=O)C[C@@](CCCC(C)(C)OC(=O)/C=C/c1ccco1)(OC(=O)/C=C/c1ccco1)C(=O)O[C@@H]1C(OC)=C[C@]23CCCN2CCc2cc4c(cc2[C@H]13)OCO4 : 9.38
